Target: HIV-1 Env of strain TRO.11 (HIV-1)
Experiment: cell-based or functional assay
assay.readout: neutralization IC50 (µg/mL)
Give just the numeric value; µg/mL need not be written.

[[record]]
binder = "NIH45-46 G54I IgG (antibody, name in Kabat numbering, V domains shown) VH: QVRLSQSGGQMKKPGESMRLSCRASGYEFLNCPINWIRLAPGRRPEWMGWLKPRIGAVNYARKFQGRVTMTRDVYSDTAFLELRSLTSDDTAVYFCTRGKYCTARDYYNWDFEHWGRGAPVTVSS VL: EIVLTQSPATLSLSPGETAIISCRTSQSGSLAWYQQRPGQAPRLVIYSGSTRAAGIPDRFSGSRWGADYNLSISNLESGDFGVYYCQQYEFFGQGTKVQVDI"
endpoint_result = 10


Please examine the following record next.
Task item: Please look at this binder and report its neutralization IC50: NIH45-46^G54W IgG (antibody, name in Kabat numbering, V domains shown) VH: QVRLSQSGGQMKKPGESMRLSCRASGYEFLNCPINWIRLAPGRRPEWMGWLKPRWGAVNYARKFQGRVTMTRDVYSDTAFLELRSLTSDDTAVYFCTRGKYCTARDYYNWDFEHWGRGAPVTVSS VL: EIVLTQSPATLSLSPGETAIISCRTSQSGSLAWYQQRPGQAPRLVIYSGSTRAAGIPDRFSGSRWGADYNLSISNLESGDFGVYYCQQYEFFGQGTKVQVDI
Reply: 0.09

Hey, just so you know, these numbers are from patent US20130209454A1.
